Hello, the source for this data is patent US8883829B2, in case you need it.

Experiment: Determination of the solubility in cosmetic solvents
Conditions: Capric/Caprylic Triglyceride, saturated solution stirred 7 days at room temperature, HPLC
Catalogue of solubility Myritol 318 values

COMPOUND | solubility Myritol 318, %
CCCCC(CC)C(=O)OCc1cc(C)cc(-n2nc3ccccc3n2)c1O (centres unmarked) [Example 8] | 24
Cc1cc(COCCC(C)C)c(O)c(-n2nc3ccccc3n2)c1 [Example 6] | 36
Cc1cc(COC(=O)CC(C)C)c(O)c(-n2nc3ccccc3n2)c1 [Example 9] | 6
Cc1cc(CO)c(O)c(-n2nc3ccccc3n2)c1 [Example 14] | 0.01
CCCCC(CC)COCc1cc(C)cc(-n2nc3ccc(Cl)cc3n2)c1O (centres unmarked) [Example 12] | 12
